All figures here come from the supplement of paper PMC12042874.

Test: amyloid nucleation score (Sup35N fusion, yeast selection) (log enrichment); library NNK1; higher = more nucleation; inactive = no reads after selection;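 also: zero at mode of non-aggregating sequences after 7 days selection at 30°C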
Outcome label depends on amyloid nucleation score relative to 0.004: at/above gives Y, below gives N.

Challenge: Dear colleague, could you confirm whether GAVIVCVYMQALVVIDRASA has amyloid nucleation score at or above 0.004?
Response given: N

Challenge: Repeat with LSPSCCCFYVLGIVT
Response given: Y

====

Experiment: amyloid nucleation score (Sup35N fusion, yeast selection) (log enrichment); library NNK1; higher = more nucleation; inactive = no reads after selection
# amyloid nucleation score values compiled below

Below are worked cases with known answers.
Challenge: Recorded amyloid nucleation score of MHYGTLSIVV , please.
Response given: 0.302

Challenge: What would you report for FWSMIGLWILDC ?
Response given: 0.031

Challenge: Queued: CNISAITRFTEIWSRVTSVF
Response given: 1.59

Challenge: For NRYGWHSPDVPLAHIS then?
Response given: -0.029

Challenge: Continue with ISGFGVIVWGVVSWVWYGTN
Response given: -0.268

Challenge: Moving on to the next sequence: IRPNMRAVKIEVQDVGSQCV
Response given: 0.428

Challenge: Here is the next sequence: CKMNYGLVLAGSLGVGSGQD
Response given: 0.317

Challenge: Input QRSCNAVTFVGCQYNFFPTE
Response given: 7.09

Challenge: Also GSVINGWRRYLFVISILLGL , if possible.
Response given: -0.374

Challenge: Next sequence: STPNRLGPMPSWVGSTEAVV
Response given: -0.474

Next:
Challenge: Reported amyloid nucleation score for RNTVGYVSNTGVLYILTS : what is it?
Response given: 6.24

Challenge: Same question, CRSTYDQLPEYLST this time
Response given: -0.117

Challenge: Also check STTIPRVFGSTYNSYNVSIS
Response given: 0.384

Challenge: Can you check ILESRVPCCLKRGLNKEIGL next?
Response given: 0.672

Challenge: Query TLCFQTISPRRPQLRWTWAH next
Response given: 0.875

Challenge: Now this one: LTAYLRGTDSGPERSWRCAS
Response given: -0.209

Challenge: // repeat for VVNVQMNQPYMQCFPQDTR and report
Response given: 3.93

====

Assay: amyloid nucleation score (Sup35N fusion, yeast selection) (log enrichment); library NNK3; higher = more nucleation; inactive = no reads after selection
Property measured: amyloid nucleation score

Example cases with answers are listed next.
Challenge: Fill in the blank: the reported amyloid nucleation score of SYRAARNFHMFLLYWHGTRW is ____.
Response given: inactive

Challenge: Follow-up entry: INTLYMTDRDRSLPESVQNL
Response given: inactive

Challenge: Also need SVKVPWWDCINVRAHMWRMV , thanks.
Response given: inactive

Challenge: And GNVILCFMLNYSMISGNDM ?
Response given: 0.956

Challenge: // repeat for YCTFDVCGFSSASSEGFNTA and report
Response given: 0.465

New cases:
Challenge: // query amyloid nucleation score value for entry SAASYLTHDVN
Response given: inactive

Challenge: # repeat for GGAVMMALWGGLS
Response given: inactive

Challenge: Same again, this time with SLLFTGHLCLYHTLVCCVFI
Response given: 1.28

Challenge: Param item: IRAYTDNDSNLSEFGVFTLV
Response given: inactive
